SYSTEM_NAME: HLA DQ molecule DQB1*0202 (human)
TEST_DETAILS: inhibition of radiolabeled peptide binding to purified HLA class II
READOUT: pIC50
// returns pIC50 (minus log10 of molar concentration), number only

Task: Given the entry LDLAVNAAVDAGIHF (modifications not checked) [Pen ch 18 (291-305) peptide …, Peptide ID 3324.1331] , report its measured pIC50.
Output: 6.44
